Origin of values: paper PMC6792352

Assay Summary: in vitro
Experimental Context: rat, gh3-tre-luc cells, AC50 (uM) modified / 1000, Tox21_110001=Tox21_303313; viability, 1 nM T3 present, 24 h
Measured Property: CC50 at 24 h

Reported CC50 at 24 h for CCCCC(CC)COP(=O)(Oc1ccccc1)Oc1ccccc1 (stereo not shown) [2-Ethylhexyl diphenyl phosphate] : what is it?
> 90 µM

###

Task for the reader: assign each of the following compounds its reported CC50 at 24 h.
Assay Summary: in vitro
Experimental Context: rat, gh3-tre-luc cells, AC50 (uM) modified / 1000
Structures can show the parent of a compound that is named as a salt.

Reported CC50 at 24 h for CCOc1ccc(Cc2nccc3cc(OCC)c(OCC)cc23)cc1OCC [Ethaverine hydrochloride] : what is it?
> 20 µM

Reported CC50 at 24 h for O=C(NC(=O)c1c(F)cccc1F)Nc1ccc(OC(F)(F)C(F)OC(F)(F)F)c(Cl)c1 (stereo not drawn) : what is it?
> 50 µM

Reported CC50 at 24 h for O=C(O)c1cccc(C(=O)O)n1 : what is it?
> 90 µM

Reported CC50 at 24 h for CC[C@]1(O)C[C@H]2CN(CCc3c([nH]c4ccccc34)[C@@](C(=O)OC)(c3cc4c(cc3OC)N(C)[C@H]3[C@@](O)(C(N)=O)[C@H](O)[C@]5(CC)C=CCN6CC[C@]43[C@@H]65)C2)C1 [Vindesine sulfate salt] : what is it?
0.425 µM

Reported CC50 at 24 h for C=CC[N+]1([C@H]2C[C@H]3[C@@H]4CC[C@H]5C[C@H](O)[C@@H](N6CCOCC6)C[C@]5(C)[C@H]4CC[C@]3(C)[C@H]2OC(C)=O)CCCC1 [Rocuronium bromide] : what is it?
> 50 µM

Reported CC50 at 24 h for O=C(O)C1(c2ccc3c(c2)OC[C@H](Cc2ccc(-c4ccccc4)cc2)[C@H]3O)CCCC1 : what is it?
50.9 µM

Reported CC50 at 24 h for O=C(NCC1CCCCN1)c1cc(OCC(F)(F)F)ccc1OCC(F)(F)F (stereo not drawn) [Flecainide acetate] : what is it?
42.2 µM

Reported CC50 at 24 h for CNC(=O)C(c1ccccc1)c1ccccc1 [N-methyl-alpha-phenylbenzeneacetamide] : what is it?
> 90 µM

Reported CC50 at 24 h for O=C1CCCCCCCCCCCCCCCO1 : what is it?
> 90 µM

Reported CC50 at 24 h for O=C(O)Cc1ccc(OCCNC[C@H](O)c2ccccc2)cc1 : what is it?
> 50 µM

Reported CC50 at 24 h for CC(=O)Oc1c(C)c(C)c2c(c1C)CC[C@@](C)(CCC[C@H](C)CCC[C@H](C)CCCC(C)C)O2 (racemic) [dl-alpha-Tocopheryl acetate] : what is it?
> 90 µM

Reported CC50 at 24 h for CC(C)[C@@H]1CC[C@@H](C)C[C@H]1O : what is it?
> 90 µM

Reported CC50 at 24 h for CC(C)OC(=O)OCOP(=O)(CO[C@H](C)Cn1cnc2c(N)ncnc21)OCOC(=O)OC(C)C [Tenofovir disoproxil fumarate] : what is it?
> 50 µM

Reported CC50 at 24 h for NS(=O)(=O)c1ccccc1Cl [2-Chlorobenzenesulfonamide] : what is it?
> 90 µM

Reported CC50 at 24 h for CC12CC1(C)C(=O)N(c1cc(Cl)cc(Cl)c1)C2=O (stereo not drawn) : what is it?
> 90 µM
